Data credit: ChEMBL document CHEMBL1201862

Tested on: SF-268
Experiment: NCI tumour cell line growth inhibition, 48 h
Calls of active or inactive are those of the source. Cut-off read from the data, not from the text of the source: active = GI50 up to about 1.1 µM and inactive = higher.
Labels: active, inactive

compound: N#CCN1CCN(CC#N)CCN(CC#N)CCN(CC#N)CC1
discrete.label: inactive

compound: CCCCSC1=N/C(=C\c2ccc(N(C)C)cc2)C(Cl)=N1
discrete.label: inactive

compound: Cc1cc(NC(=S)Nc2ccccc2)c(NC(=S)Nc2ccccc2)cc1C
discrete.label: inactive

compound: O=C1CN(/N=C/c2ccc(-c3ccc(F)cc3)o2)C(=O)N1
discrete.label: inactive

compound: COc1ccc2c3c1O[C@H]1C(OC)C=CC4C(C2)N(Cc2cccs2)CCC341 (stereo partly specified)
discrete.label: inactive

compound: OCC1C(O)C(O)[C@@H]2SCCN12 (stereo partly specified)
discrete.label: inactive

compound: O=C1CCC(=O)C1=NNc1ccccc1
discrete.label: inactive

compound: O=P1(Oc2ccccc2)N(CCCl)CCN1c1ccccc1 (stereo unspecified)
discrete.label: inactive

compound: Cc1nc(Cl)c(C)c(Cl)n1
discrete.label: inactive

compound: O=C(Nc1ccc(Nc2ccc(NC(=O)c3ccccc3)c3c2C(=O)c2ccccc2C3=O)c2c1C(=O)c1ccccc1C2=O)c1ccccc1
discrete.label: inactive

compound: COC(=O)C1C(=O)CC2CCCCC21 (stereo unspecified)
discrete.label: inactive

compound: CCCCCCCCCCCCCCCCNC(=O)/C(=C\c1ccc(Cl)c(Cl)c1)NC(=O)c1ccccc1
discrete.label: inactive

compound: CCN(CC)CCNc1n[n+]([O-])c2cc([N+](=O)[O-])ccc2[n+]1[O-]
discrete.label: active

compound: Nc1cccc(/C=C/C(=O)N2CCN(CCOC(c3ccccc3)c3ccccc3)CC2)c1
discrete.label: inactive

compound: COC(=O)c1ccc(O)c2nc3c(C=O)c(O)cc(O)c3nc12
discrete.label: active

compound: Cn1cc(NC(=O)c2cc(NC(=O)CNC(=N)N)cn2C)cc1C(=O)NCCC(=N)N [NETROPSIN CHLORIDE]
discrete.label: inactive

compound: CSc1nc2c(c(O)c(C)c(=O)n2C2OC(COC(C)=O)C(OC(C)=O)C(OC(C)=O)C2OC(C)=O)c(=O)n1C (stereo unspecified)
discrete.label: inactive

compound: CN(C)c1ccc(Cc2cc(C(C)(C)C)cc(C(C)(C)C)c2O)cc1
discrete.label: inactive

compound: CCOc1ccc(N/C(Cl)=C(Cl)\C(=C(\Nc2ccc(OCC)cc2)n2nnc3ccccc32)[N+](=O)[O-])cc1
discrete.label: inactive

compound: CCN(CC)CCOc1ccc(C(=C2CCCCC2)c2ccc(OCCN(CC)CC)cc2)cc1
discrete.label: inactive

compound: CC(=O)C1CC=C(C)CC1 (stereo unspecified)
discrete.label: inactive
